- Test system: MOLT-4
- TEST_NAME: NCI tumour cell line growth inhibition, 48 h
Calls of active or inactive are those of the source. No stated cut-off is given here; in the data, active = GI50 up to about 1.1 µM and inactive = higher.
Assign a class; possible classes are true for active, false for inactive

Solved cases below.
CCOC(=O)c1c(O)nc2cccc3c2c1-c1cccnc1S3 :: false
Cc1cc(O)c(C(c2cccnc2)c2c(O)cc(C)[nH]c2=O)c(=O)[nH]1 :: false
O=c1c(NO)c([N+](=O)[O-])cnn1-c1ccccc1 :: false
O=C1CCC[C@@H]2NC[C@@H](c3ccc4c(c3)OCO4)[C@H]12 :: false
COCOC1/C=C/CCCC#C[C@H](C)C(=O)CC1 (some centres not stated) :: false
CO[C@@]12[C@H](COC(N)=O)C3=C(C(=O)C(C)=C(N)C3=O)N1C[C@H]1[C@@H]2N1C (some centres not stated) :: true

Consider now this further compound.
Returns: the outcome recorded for CC(C)SC(C)(NC(=O)C1C(C)(C)CCC1(C)C)C(=O)O (configuration not stated) in this assay.
false
